# TESTED SYSTEM: UniProt:P11712
# Sequence (P11712 whole entry): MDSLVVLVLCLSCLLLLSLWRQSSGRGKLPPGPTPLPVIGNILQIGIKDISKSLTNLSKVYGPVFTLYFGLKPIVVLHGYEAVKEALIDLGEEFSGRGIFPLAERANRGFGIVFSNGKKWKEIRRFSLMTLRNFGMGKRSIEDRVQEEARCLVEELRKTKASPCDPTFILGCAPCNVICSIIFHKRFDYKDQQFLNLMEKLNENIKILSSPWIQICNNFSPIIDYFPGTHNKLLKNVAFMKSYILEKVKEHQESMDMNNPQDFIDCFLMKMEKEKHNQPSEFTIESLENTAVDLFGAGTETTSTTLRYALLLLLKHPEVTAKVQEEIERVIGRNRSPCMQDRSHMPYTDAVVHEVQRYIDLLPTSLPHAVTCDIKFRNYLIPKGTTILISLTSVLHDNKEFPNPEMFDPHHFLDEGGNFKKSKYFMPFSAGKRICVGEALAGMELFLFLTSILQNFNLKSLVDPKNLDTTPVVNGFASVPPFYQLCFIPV
# ASSAY DETAILS: Inhibitory activity of 20 uM SPP100 on 227 Pmoles of cDNA-derived CYP2C9 enzyme in microsome prepared from human lymphoblastoid cell line
# Format: ADME, microsomes
# Set-up: conc 20 uM, interact cpd conc 6 uM
# COND: probe diclofenac
MEASURE: inhibition at 20 µM (%)
Please respond with the number in % and leave the unit unwritten.

Qu. // fetch inhibition at 20 µM given entry COCCCOc1cc(C[C@@H](C[C@H](N)[C@@H](O)C[C@H](C(=O)NCC(C)(C)C(N)=O)C(C)C)C(C)C)ccc1OC
Ans. 13.1
